# system-under-test: T1, DLL3 target antigen coated on Octet SA tips (binning experiment) (Homo sapiens (Human), UniProt Q9NYJ7 27-492, Probably biotinylated for capture on streptavidin (SA) tips. The site is not stated.)
# T1 sequence: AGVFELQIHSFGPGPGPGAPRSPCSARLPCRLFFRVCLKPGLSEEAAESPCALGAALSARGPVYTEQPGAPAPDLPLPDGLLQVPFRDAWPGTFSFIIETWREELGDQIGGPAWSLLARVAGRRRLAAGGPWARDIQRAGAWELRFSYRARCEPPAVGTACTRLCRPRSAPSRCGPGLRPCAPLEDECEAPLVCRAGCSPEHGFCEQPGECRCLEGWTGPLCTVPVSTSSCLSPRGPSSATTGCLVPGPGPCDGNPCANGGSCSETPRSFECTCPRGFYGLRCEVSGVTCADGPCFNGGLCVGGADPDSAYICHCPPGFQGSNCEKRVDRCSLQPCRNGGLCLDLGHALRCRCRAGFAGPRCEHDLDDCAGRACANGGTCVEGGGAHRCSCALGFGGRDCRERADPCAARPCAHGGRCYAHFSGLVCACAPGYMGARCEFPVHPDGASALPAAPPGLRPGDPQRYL
# assay-info: Octet binning on DLL3-coated SA tips; competitor: DLL3 BiTEs
Rule for this label: criterion met means binning response (unit not given) is less than 9; criterion not met means binning response (unit not given) is at least 9.

binder	assigned-class
2HCE27 anti-DLL3 VHH (VHH, In the binning assay it was used as a periplasmic extract; also called anti-DLL3 (2HCE27)) VHH: QVQLQESGGGLVQAGGSLRLSCAASGRTFRSYAMGWFRQAPGKEREFIAVIIMSDGSTSYADSVKGRFTISRDNAKNTLYLQMNSLKPEDTAVYYCAARRDYFTGVYDYWGQGTQVTVSS	criterion not met
anti-human DLL3 BiTE (bispecific antibody, also called DLL3 BiTEs) QVQLQESGPGLVKPSETLSLTCTVSGGSISSYYWSWIRQPPGKGLEWIGYVYYSGTTNYNPSLKSRVTISVDTSKNQFSLKLSSVTAADTAVYYCASIAVTGFYFDYWGQGTLVTVSSGGGGSGGGGSGGGGSEIVLTQSPGTLSLSPGERVTLSCRASQRVNNNYLAWYQQRPGQAPRLLIYGASSRATGIPDRFSGSGSGTDFTLTISRLEPEDFAVYYCQQYDRSPLTFGGGTKLEIK	criterion met
3HCE56 anti-DLL3 VHH (VHH, In the binning assay it was used as a periplasmic extract) VHH: QVQLQESGGGLVQAGGSLRLSCAASGRTFSVDAMGWLRQAPGKEREFVVVIDWTGGSTAYADSVKGRFTISRDNARNTVYLQMNNLKPEDTGVYYCAARERSRTAYDYWGQGTQVTVSS	criterion not met
3HCE87 anti-DLL3 VHH (VHH, In the binning assay it was used as a periplasmic extract) VHH: QVQLQESGGGLVQAGGSLRLSCAASGFIFDDYIIGWFRQAPGKEREFVAAISWSGSATAYADSVKGRFTISRDNAKNTLYLQMNTLKPEDTAVYYCAASSRGPYNSGSSYDYWGQGTQVTVSS	criterion not met
2HCE117 anti-DLL3 VHH (VHH, In the binning assay it was used as a periplasmic extract) VHH: QVQLQESGGGLVQPGGSLRLSCAASGFTFSSYAMSWVRQAPGKGLEWVSDINSGGGSTYYADSVKGRFTISRDNAKNTLYLQMDSLKPEDTAVYYCATPFEIGSWGQGTQVTVSS	criterion met
